Listed here: items and their measured IC50.
# target_entity: Aβ1-42 (Homo sapiens, UniProt P05067)
# Sequence (P05067 672-713 limits assumed): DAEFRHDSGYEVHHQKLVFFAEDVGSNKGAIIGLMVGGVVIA
# experiment_summary: Inhibition of self-mediated Aβ1-42 aggregation (thioflavin T assay)

smiles_input | target_entity | IC50 (µM)
COc1cc(O)c2c(=O)c3cccc(O)c3n(C)c2c1OC | Aβ1-42 (Homo sapiens, UniProt P05067) | 7.05
CC(C)=CCc1c2c(c(O)c3c(=O)c4cccc(O)c4n(C)c13)C=CC(C)(C)O2 | Aβ1-42 (Homo sapiens, UniProt P05067) | 5.84
CC(C)=CCc1c2c(c3[nH]c4c(O)cccc4c(=O)c3c1O)C=CC(C)(C)O2 | Aβ1-42 (Homo sapiens, UniProt P05067) | 4.79
CC(C)=CCc1c(O)c(CC=C(C)C)c2[nH]c3c(O)cccc3c(=O)c2c1O | Aβ1-42 (Homo sapiens, UniProt P05067) | 6.58
COc1c(O)cc(O)c2c(=O)c3cccc(O)c3n(C)c12 | Aβ1-42 (Homo sapiens, UniProt P05067) | 6.17
COc1cc2[nH]c3c(O)cccc3c(=O)c2c(O)c1CC=C(C)C | Aβ1-42 (Homo sapiens, UniProt P05067) | 8.81
CC(C)=CCc1c2c(c3c(c1O)c(=O)c1cccc(O)c1n3C)C=CC(C)(C)O2 | Aβ1-42 (Homo sapiens, UniProt P05067) | 6.14
CC(C)=CCc1c(O)c(CC=C(C)C)c2c(c1O)c(=O)c1cccc(O)c1n2C | Aβ1-42 (Homo sapiens, UniProt P05067) | 7.32
COc1c(O)c(OC)c2c(c1O)c(=O)c1cccc(O)c1n2C | Aβ1-42 (Homo sapiens, UniProt P05067) | 8.61
COc1c(O)cc2c(c1O)c(=O)c1cccc(O)c1n2C | Aβ1-42 (Homo sapiens, UniProt P05067) | 6.58
